- Test system: OVCAR-5
- assay-procedure: NCI tumour cell line growth inhibition, 48 h
The source made the active and inactive calls. No stated cut-off is given here; in the data, active = GI50 up to about 1.1 µM and inactive = higher.
Overview of recorded GI50 for various compounds

Would you please look over these solved cases?
# compound, GI50
rows = [
    ("Cc1ccc(-c2cnc(NC3OC(COC(=O)c4ccccc4)C(OC(=O)c4ccccc4)C(OC(=O)c4ccccc4)C3OC(=O)c3ccccc3)s2)cc1 (stereo not drawn)", "61.7 µM (inactive)"),
    ("CC1(C)NC(C(=O)c2ccccc2)=[N+]([O-])C1(O)c1ccccc1 (stereo not drawn)", "> 100 µM (inactive)"),
    ("O=C(Nc1nc(C23CC4CC(CC(C4)C2)C3)cs1)c1c(O)c2ccccc2[nH]c1=O", "> 100 µM (inactive)"),
]

Look up GI50 of "CN(C)c1ccc(/C=C/C(=O)CC(=O)/C=C/c2ccc(N(C)C)cc2)cc1" and report it.
> 100 µM (inactive)

Look up GI50 of "CN1CCN(c2ccc3nc(C4=C(O)C(=O)[C@@H]5C(=C4O)N=C(CO)N5C)[nH]c3n2)CC1" and report it.
> 100 µM (inactive)

Look up GI50 of "C/C=C(/C)C(=O)O[C@H]1[C@H]2[C@@H]([C@@H](OC(C)=O)[C@H](C)C(=O)[C@@]34C[C@@H](C)C(=O)[C@]3(/C=C(\C)[C@H]1OC(C)=O)O4)C2(C)C" and report it.
3.94 µM (inactive)

Look up GI50 of "O=C(NOC(=O)c1ccc([N+](=O)[O-])cc1)c1ccc(Cl)cc1" and report it.
> 100 µM (inactive)

Look up GI50 of Cc1cc(O)nc(NNC(C#N)c2ccc(N(C)C)cc2)n1 (stereo not drawn) and report it.
> 100 µM (inactive)

###

- Tested on: MOLT-4
- assay-procedure: NCI tumour cell line growth inhibition, 48 h
Activity calls are given as the source filed them. Cut-off read from the data, not from the text of the source: active = GI50 up to about 1.1 µM and inactive = higher.
Respond only with the outcome that fits, drawn from label 1 for active, label 0 for inactive

Worked set:
# compound, study-system, category-label
data = [
    ("c1ccc2c(OCCSCCCCCCCCCCSCCOc3cccc4ccccc34)cccc2c1", "MOLT-4", "label 0"),
    ("O=C1NC(=O)C(C(CC(=O)c2ccc([N+](=O)[O-])cc2)c2ccccc2)C(=O)N1 (stereo not drawn)", "MOLT-4", "label 0"),
    ("O=C1NN=C2C=C(c3ccc(Cl)cc3)CC(c3cccc(Br)c3)C12 (stereo not drawn)", "MOLT-4", "label 0"),
    ("O=C(CC1(O)C(=O)Nc2ccc(Br)cc21)c1ccc(Cl)cc1Cl (stereo not drawn)", "MOLT-4", "label 0"),
    ("CCCC(=O)N[C@@H](Cc1cc(I)c(O)c(I)c1)C(=O)NCCCNCCCCNCCCNC(=O)[C@@H](N)CCCN=C(N)N", "MOLT-4", "label 0"),
    ("CC[C@H](C)[C@H]1NC(=O)[C@@H](NC(=O)[C@@H](CC(C)C)N(C)C(=O)C2CCCN2C(=O)[C@H](C)O)[C@@H](C)OC(=O)[C@@H]2Cc3ccccc3CN2C(=O)[C@@H]2CCCN2C(=O)[C@H](CC(C)C)NC(=O)[C@@H](C)C(=O)[C@H](C(C)C)OC(=O)C[C@@H]1O (stereo partly drawn)", "MOLT-4", "label 1"),
]

Outcome? "CCN(CC)C(=O)c1cccc2c(OC)ccc(OC)c12"
label 0

Outcome? "CSc1ccc2c(c1)N(CCCN(C)C)c1ccccc1S2"
label 0
